Data provenance is ChEMBL document CHEMBL1201862.

molecular target: Ubiquitin-conjugating enzyme E2 N (Homo sapiens); format: functional
Sequence (P61088 whole entry): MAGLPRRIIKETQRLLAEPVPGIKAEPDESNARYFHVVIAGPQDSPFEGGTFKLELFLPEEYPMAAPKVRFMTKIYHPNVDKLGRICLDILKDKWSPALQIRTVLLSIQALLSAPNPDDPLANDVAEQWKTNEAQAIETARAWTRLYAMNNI
Calls of active or inactive are those of the source.
Outcomes: y (active), n (inactive)

{"columns": ["compound", "label.value"],
 "data": [
  ["Oc1cc(Nc2ccncc2)cc2cccnc12", "y"],
  ["CN(Cc1ccccc1)C(=O)COC(=O)c1cc(-c2ccc(Cl)s2)nc2ccccc12", "n"],
  ["CCOC(=O)C1=C(COC(=O)c2cc(OC)c(OC)c(OC)c2)NC(=O)NC1C (centres undefined)", "y"],
  ["O=C1c2cccc3cccc(c23)N1Cc1ccc(F)cc1", "y"]
]}

* * *

tested on: H9c2; assay: cells; assay type: functional, cell-based; settings: Rattus norvegicus, H9c2, Myocardium;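 note: cell death induced by hydrogen peroxide oxidative stress; compound pretreatment for 60 min then peroxide exposure for 2 h; potency is for protecting the cells against peroxide damage rather than for killing them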;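 note: confirmatory concentration-response retest of ultra-high-throughput screening hits for modulation of myocardial damage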
Activity calls are given as the source filed them.
Possible outcomes: 1.0 (active), 0.0 (inactive)

{"columns": ["compound", "label.value"],
 "data": [
  ["COc1ccc(C(=O)NNC(=O)CCc2nc(O)c3ccccc3n2)cc1", 1.0],
  ["CC1CCCC(C)N1C(=O)CSc1nc(O)c2ccccc2n1 (centres undefined)", 0.0],
  ["Cc1nc(SCC(=O)NCc2ccc(F)cc2)c2c(=O)n(C)c(=O)n(C)c2n1", 0.0],
  ["O=C(CN1C(=O)C2C3C=CC(C3)C2C1=O)Nc1nc(-c2ccccn2)cs1 (centres undefined)", 1.0]
]}

* * *

target: Genome polyprotein (dengue virus type 2); test: Dengue-2 NS5 methyltransferase inhibitors, primary screen, biochemical, confirmation dose response (AID 588689); type: functional
Calls of active or inactive are those of the source.

{"columns": ["smi", "IC50"],
 "data": [
  ["Cc1cc(SCC(=O)N/N=C/c2ccc(O)c(O)c2O)c(C)cc1Br", "17.4 µM (active)"],
  ["O=C(O)c1ccccc1-c1ccccc1C(=O)Nc1ccc2c(c1)C(=O)c1ccccc1-2", "58.9 µM (active)"],
  ["Cc1cc(C)c(S(=O)(=O)/N=C2/C=C(SCC(=O)O)C(=O)c3ccccc32)cc1C", "> 100 µM (active)"],
  ["CC(=O)Oc1ccc(/C=C2/C(=O)N(c3ccccc3)N=C2C)cc1", "56 µM (active)"],
  ["O=C(O)c1ccc(NC2=C(Cl)C(=O)c3ccccc3C2=O)cc1", "7.76 µM (active)"],
  ["CCOC(=O)c1sc(N2N=C(C)/C(=C\\c3ccc(OCC(=O)OC)cc3)C2=O)nc1C", "90.7 µM (active)"]
]}

* * *

target: Protein RecA (Mycobacterium tuberculosis); test: Fluorescence Cell-Free Homogeneous Dose Retest to Identify Inhibitors of RecA-Intein Splicing Activity. [Related pubchem assays (depositor defined):AID2097, AID2223, AID489010, AID492950]; type: functional
Calls of active or inactive are those of the source.
endpoint: EC50

{"columns": ["molecule", "meas.value"],
 "data": [
  ["COc1cccc(-c2[nH]nc3c2C(c2ccsc2)C(C#N)=C(N)O3)c1 (stereo unspecified)", "0.52 µM (active)"],
  ["Cn1nnnc1Sc1ncnc2scc(-c3ccc(F)cc3)c12", "11.2 µM (active)"],
  ["Cc1n[nH]c2c1C(c1c[nH]c3ccccc13)C(C#N)=C(N)O2 (stereo unspecified)", "2.03 µM (active)"],
  ["Cc1c(/N=C2\\C=CC(=O)c3ccccc32)c(=O)n(-c2ccccc2)n1C", "0.768 µM (active)"],
  ["CC(=O)NC1N=C(C)N(c2ccccc2)C1=O (stereo unspecified)", "10.7 µM (active)"],
  ["COc1nc(N/N=C/c2ccc(-c3ccccc3[N+](=O)[O-])o2)nc(N2CCOCC2)n1", "14.4 µM (active)"]
]}

* * *

List of EC50 values.
target: Luciferin 4-monooxygenase (Photinus pyralis, UniProt P08659); assay: firefly luciferase enzyme inhibitors, dose response, biochemical, luminescence (AID 1891)
Sequence (P08659 whole entry): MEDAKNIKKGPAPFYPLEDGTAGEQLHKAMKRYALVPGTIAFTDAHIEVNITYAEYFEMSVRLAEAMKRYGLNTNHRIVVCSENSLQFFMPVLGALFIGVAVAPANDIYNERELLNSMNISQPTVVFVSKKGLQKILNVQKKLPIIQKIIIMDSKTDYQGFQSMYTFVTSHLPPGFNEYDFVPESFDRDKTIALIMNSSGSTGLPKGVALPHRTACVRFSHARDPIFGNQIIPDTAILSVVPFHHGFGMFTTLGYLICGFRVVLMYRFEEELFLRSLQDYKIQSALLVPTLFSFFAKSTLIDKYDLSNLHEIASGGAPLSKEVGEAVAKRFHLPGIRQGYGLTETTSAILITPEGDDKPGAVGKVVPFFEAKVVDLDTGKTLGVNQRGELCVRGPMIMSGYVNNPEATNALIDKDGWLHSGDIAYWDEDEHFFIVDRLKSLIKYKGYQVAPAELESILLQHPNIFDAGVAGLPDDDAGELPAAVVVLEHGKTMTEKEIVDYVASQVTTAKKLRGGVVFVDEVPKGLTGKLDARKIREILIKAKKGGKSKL
Activity calls are given as the source filed them.
endpoint: EC50

{"columns": ["compound", "meas.value"],
 "data": [
  ["COc1ccc(C2(C)NC(=O)N(CC(=O)NCCC3=CCCCC3)C2=O)cc1OC (centres undefined)", "> 112 µM (not active)"],
  ["CC(=O)N1c2ccc(S(=O)(=O)N3CCCCC3)cc2CC1C(=O)Nc1ccccc1C(F)(F)F (centres undefined)", "> 112 µM (not active)"],
  ["O=C(Nc1cccc(Cl)c1)Nc1ccccc1C(=O)O", "0.654 µM (active)"],
  ["Cc1sc2ncnc(SCC(=O)N3CCCC3)c2c1C", "> 112 µM (not active)"]
]}

* * *

Dear all, this message contains AC50 results, target or system Cytochrome P450 3A4 (Homo sapiens, UniProt P08684).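 Note: CYP3A4 tested as one member of a cytochrome P450 panel screen.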
endpoint: AC50

{"columns": ["compound", "meas.value"],
 "data": [
  ["Cc1nc2cnc(Nc3ccccc3)nc2n(C[C@H]2CCCO2)c1=O", "15.8 µM (inconclusive)"],
  ["COC(=O)c1cc2c(ccn2-c2ccc(F)cc2)n1C(C)C", "25.1 µM (inconclusive)"],
  ["c1cncc(-c2nc(N3CCNCC3)c3ccccc3n2)c1", "31.6 µM (inconclusive)"],
  ["Cn1c(=O)c2nc(CCS)[nH]c2n(C)c1=O", "10 µM (inconclusive)"],
  ["O=C(CN1CCN(Cc2ccccc2)CC1)c1ccc(Br)cc1", "14.1 µM (inconclusive)"],
  ["O=C(c1ccc(CN2CCc3ccccc3C2)cc1)N1CCc2ccccc2C1", "3.98 µM (inconclusive)"],
  ["CC(=O)NC1(C(F)(F)F)C(=O)N(Cc2ccccc2)C2=C1C(=O)CC(C)(C)C2 (configuration not stated)", "14.1 µM (inconclusive)"],
  ["Cc1ccc(NC(=O)CN(C)C(=O)CSc2n[nH]c(N)n2)cc1", "31.6 µM (inconclusive)"],
  ["COC(=O)[C@H](Cc1ccccc1)NC(=O)N1CCN(Cc2ccccc2)CC1", "14.1 µM (inconclusive)"],
  ["COc1ccc(C2=Nc3c(c(=O)n(C)c(=O)n3C)C(C(F)(F)F)(C(F)(F)F)N2)cc1", "14.1 µM (inconclusive)"],
  ["Cc1noc(C)c1-c1nccc(NCCN2CCOCC2)n1", "20 µM (inconclusive)"],
  ["CN1CCN(c2ncnc3ccc(-c4cccc(NS(C)(=O)=O)c4)cc23)CC1", "12.6 µM (inconclusive)"]
]}

* * *

EC50 reference
target: Zinc finger protein mex-5 (Caenorhabditis elegans); experiment: MEX-5/TCR-2 RNA interaction inhibitors, dose response, biochemical, C. elegans, fluorescence polarization (AID 1960)
Sequence (Q9XUB2 whole entry): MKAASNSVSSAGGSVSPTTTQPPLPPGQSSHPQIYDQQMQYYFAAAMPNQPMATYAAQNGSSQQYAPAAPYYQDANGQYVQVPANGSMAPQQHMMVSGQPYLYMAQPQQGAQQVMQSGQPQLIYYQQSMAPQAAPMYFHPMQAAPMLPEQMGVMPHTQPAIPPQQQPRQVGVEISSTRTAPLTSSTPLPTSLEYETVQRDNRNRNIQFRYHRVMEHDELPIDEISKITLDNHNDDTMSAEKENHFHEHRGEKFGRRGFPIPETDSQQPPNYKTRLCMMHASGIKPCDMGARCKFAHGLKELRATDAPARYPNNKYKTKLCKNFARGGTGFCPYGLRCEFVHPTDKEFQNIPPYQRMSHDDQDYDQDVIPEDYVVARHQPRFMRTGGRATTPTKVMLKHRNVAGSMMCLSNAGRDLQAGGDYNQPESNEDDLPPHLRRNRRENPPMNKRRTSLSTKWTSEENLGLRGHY
Active and inactive are the calls of the source.
endpoint: EC50

{"columns": ["compound", "endpoint", "meas.value"],
 "data": [
  ["O=C(O)c1ccc2c3c(ncnc13)-c1ccccc1C2=O", "EC50", "31.9 µM (active)"],
  ["O=C(O)CCN1C(=O)/C(=C/c2ccc(-c3nc4ccccc4s3)o2)SC1=S", "EC50", "21.8 µM (active)"],
  ["CNC(=O)c1c(NC(=O)c2ccc(S(=O)(=O)N3CCCCC3C)cc2)sc2c1CCN(C)C2 (stereo not given)", "EC50", "> 300 µM (not active)"],
  ["CN1/C(=C/C=C(C#N)C#N)C(C)(C)c2ccccc21", "EC50", "> 300 µM (inconclusive)"],
  ["COc1ccc(-c2cc3ccc(OCC(N)=O)cc3oc2=O)cc1OC", "EC50", "> 300 µM (not active)"],
  ["N#CC1=C(N)OC2=C(C(=O)CCC2)C1c1ccccc1 (stereo not given)", "EC50", "> 300 µM (not active)"],
  ["COc1ccc(C2CC(c3cccs3)=NN2c2ccc(C=O)cc2)cc1 (stereo not given)", "EC50", "24.6 µM (active)"],
  ["COc1cc(NC(=O)CSc2nc3ncnc(N)c3[nH]2)c(C(=O)O)cc1OC", "EC50", "30.3 µM (active)"],
  ["N#CCC(N)=C(C#N)C#N", "EC50", "169 µM (active)"],
  ["O=C1NC(=O)/C(=C2\\C(=O)Nc3ccc([N+](=O)[O-])cc32)S1", "EC50", "21.5 µM (inconclusive)"]
]}

* * *

target: Estrogen receptor beta (Homo sapiens, UniProt Q92731);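 note: recombinant ER-beta bound to coactivator SRC1 peptide in presence of estradiol agonist; inhibitors block coactivator peptide binding and lower the FRET signal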
Sequence (Q92731 whole entry): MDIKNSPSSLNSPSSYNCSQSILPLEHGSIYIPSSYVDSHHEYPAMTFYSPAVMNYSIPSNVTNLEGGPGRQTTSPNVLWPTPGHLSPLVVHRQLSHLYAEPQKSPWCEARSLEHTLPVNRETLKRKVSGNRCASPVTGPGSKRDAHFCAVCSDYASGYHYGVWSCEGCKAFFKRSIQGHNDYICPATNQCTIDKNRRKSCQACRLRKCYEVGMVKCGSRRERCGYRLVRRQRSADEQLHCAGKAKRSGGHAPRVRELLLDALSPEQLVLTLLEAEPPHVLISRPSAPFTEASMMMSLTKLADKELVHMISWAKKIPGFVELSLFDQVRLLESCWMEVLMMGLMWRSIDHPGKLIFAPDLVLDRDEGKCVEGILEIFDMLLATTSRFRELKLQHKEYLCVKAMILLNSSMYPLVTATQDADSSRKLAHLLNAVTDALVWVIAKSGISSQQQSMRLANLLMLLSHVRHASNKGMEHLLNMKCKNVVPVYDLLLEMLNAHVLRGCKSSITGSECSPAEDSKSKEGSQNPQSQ
Calls of active or inactive are those of the source.
endpoint: IC50

{"columns": ["smi", "endpoint", "meas.value"],
 "data": [
  ["Cn1c(C(=O)Nc2ccc3c(c2)OCO3)cc2c(=O)n(C)c3ccccc3c21", "IC50", "> 50 µM (not active)"],
  ["C=CCn1c(SCc2cc(C(=O)OC)c(C)o2)nnc1-c1ccncc1", "IC50", "> 50 µM (not active)"],
  ["CC1(C)CCCN(C(=O)c2coc(=O)c(Br)c2)C1", "IC50", "< 1.56 µM (active)"]
]}

* * *

Listing of recorded AC50 by entry.
target: Cytochrome P450 2C19 (Homo sapiens, UniProt P33261); experiment: Cytochrome panel assay with activity outcomes. Panel member name: p450-cyp2c19 Compounds with AC50 equal or less than 10 uM are considered active; assay type: functional; conditions: read-out: AC50
Sequence (P33261 whole entry): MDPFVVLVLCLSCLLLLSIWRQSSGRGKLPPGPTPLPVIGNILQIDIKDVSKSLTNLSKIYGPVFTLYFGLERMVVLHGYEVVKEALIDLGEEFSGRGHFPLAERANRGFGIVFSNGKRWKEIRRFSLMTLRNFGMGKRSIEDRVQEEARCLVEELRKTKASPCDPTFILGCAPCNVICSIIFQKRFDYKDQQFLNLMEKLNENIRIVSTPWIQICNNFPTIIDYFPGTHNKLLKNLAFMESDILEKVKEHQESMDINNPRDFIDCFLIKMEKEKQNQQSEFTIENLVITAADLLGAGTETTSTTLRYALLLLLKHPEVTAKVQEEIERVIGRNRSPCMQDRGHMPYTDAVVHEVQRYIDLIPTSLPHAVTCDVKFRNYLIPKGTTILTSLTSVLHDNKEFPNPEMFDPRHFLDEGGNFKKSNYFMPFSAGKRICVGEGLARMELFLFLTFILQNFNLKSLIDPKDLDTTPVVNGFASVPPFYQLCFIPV

{"columns": ["compound", "system.tested", "AC50"],
 "data": [
  ["CC(=O)NC1(C(F)(F)F)C(=O)N(Cc2ccccc2)C2=C1C(=O)CC(C)(C)C2 (configuration not stated)", "Cytochrome P450 2C19 (Homo sapiens, UniProt P33261)", "15.8 µM (inconclusive)"],
  ["Cc1cccc(Oc2coc3cc(OC(=O)c4cc5ccccc5oc4=O)ccc3c2=O)c1", "Cytochrome P450 2C19 (Homo sapiens, UniProt P33261)", "25.1 µM (inconclusive)"],
  ["COC(=O)CSc1ccc2nnc(-c3ccc(F)cc3)n2n1", "Cytochrome P450 2C19 (Homo sapiens, UniProt P33261)", "28.2 µM (inconclusive)"],
  ["c1ccc(N2CCC3(CCNCC3)CC2)nc1", "Cytochrome P450 2C19 (Homo sapiens, UniProt P33261)", "25.1 µM (inconclusive)"],
  ["CCOC(=O)c1cc2c(C(F)(F)F)cc(-c3ccccc3)nc2o1", "Cytochrome P450 2C19 (Homo sapiens, UniProt P33261)", "25.1 µM (inconclusive)"],
  ["COc1cccc(-c2cc(NCc3cnc(C)cn3)ncn2)c1", "Cytochrome P450 2C19 (Homo sapiens, UniProt P33261)", "0.398 µM (inconclusive)"],
  ["Nc1cc(N)nc(SCC(=O)c2ccccc2)n1", "Cytochrome P450 2C19 (Homo sapiens, UniProt P33261)", "7.08 µM (inconclusive)"]
]}
